A compilation of published IC50 results with RAC-alpha serine/threonine-protein kinase (Homo sapiens).
Sequence (P31749 whole entry): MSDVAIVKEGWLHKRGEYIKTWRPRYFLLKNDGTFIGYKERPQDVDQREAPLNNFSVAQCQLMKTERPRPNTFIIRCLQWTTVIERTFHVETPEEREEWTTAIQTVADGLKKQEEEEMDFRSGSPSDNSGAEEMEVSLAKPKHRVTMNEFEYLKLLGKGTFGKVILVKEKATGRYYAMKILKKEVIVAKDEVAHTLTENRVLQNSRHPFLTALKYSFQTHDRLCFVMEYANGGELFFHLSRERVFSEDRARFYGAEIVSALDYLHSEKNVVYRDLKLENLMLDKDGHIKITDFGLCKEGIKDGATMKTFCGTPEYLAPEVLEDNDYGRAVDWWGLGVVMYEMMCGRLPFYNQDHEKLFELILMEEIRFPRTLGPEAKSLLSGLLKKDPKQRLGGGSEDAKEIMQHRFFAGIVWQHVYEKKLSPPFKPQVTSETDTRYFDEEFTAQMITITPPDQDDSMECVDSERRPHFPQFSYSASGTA

Record excerpt, results attached:
Nc1nc(N)c2c(n1)NCCC(c1ccc(Cl)cc1)=N2 | > 100 µM
COC(=O)C(=O)Nc1c(C(N)=O)sc2[nH]nc(C)c12 | > 100 µM
CCCCN(C)C(=O)c1cc2c(-c3ccccc3)n[nH]c2s1 | > 20 µM
Cn1c(=O)c(C(=O)/C=C/c2nc3cc(F)ccc3[nH]2)c(-c2ccccc2)c2cc(Cl)ccc21 | 1.64 to 44.5 µM

Now examine the next entry.
What does the record list as IC50 for COC(=O)c1cc2c(C)n[nH]c2s1 ?
> 100 µM
